Origin of measurements: ChEMBL document CHEMBL5126507

Would you mind telling me the reported IC50 of each entry?
Target: P2Y purinoceptor 12 (Homo sapiens)
Assay: Displacement of tritium-labeled 2MeSADP from human P2Y12 expressed in CHO cells measured after 2 hrs by scintillation counting method
Type: cell-based
Dear colleague, please return just the value in nM, with no unit written.

Q: Recorded IC50 of CCCCOC(=O)N1CCN(C(=O)[C@H](CP(=O)(O)O)NC(=O)c2nc(-c3ccccc3)sc2N2CCN(C)CC2)CC1 , please.
Ans: 1

Q: Reported IC50 for CCCCOC(=O)N1CCN(C(=O)[C@H](CP(=O)(O)O)NC(=O)c2nc(-c3ccccc3)sc2N(C)CCCC)CC1 : what is it?
Ans: 1

Q: Endpoint output: IC50 of CCOC(=O)N1CCN(C(=O)[C@@H](CCC(=O)O)NC(=O)c2cc(Cl)cc(-c3ccccc3)n2)CC1 . Value?
Ans: 34

Q: Recorded IC50 for CCCCOC(=O)N1CCN(C(=O)[C@H](CCC(=O)O)NC(=O)c2nc(-c3ccccc3)sc2N2CC[C@H](OC)C2)CC1 , please?
Ans: 1

Q: Request the reported IC50 associated with CCOC(=O)N1CCN(C(=O)[C@H](Cc2ccc(P(=O)(O)O)cc2)NC(=O)c2csc(-c3ccccc3)n2)CC1
Ans: 1

Q: Data request, read-out IC50, for CCCCOC(=O)N1CCN(C(=O)[C@H](CP(=O)(O)O)NC(=O)c2csc(-c3ccccc3)n2)CC1
Ans: 1

---

Biological target: P2Y purinoceptor 12 (Homo sapiens, UniProt Q9H244)
Sequence (Q9H244 whole entry): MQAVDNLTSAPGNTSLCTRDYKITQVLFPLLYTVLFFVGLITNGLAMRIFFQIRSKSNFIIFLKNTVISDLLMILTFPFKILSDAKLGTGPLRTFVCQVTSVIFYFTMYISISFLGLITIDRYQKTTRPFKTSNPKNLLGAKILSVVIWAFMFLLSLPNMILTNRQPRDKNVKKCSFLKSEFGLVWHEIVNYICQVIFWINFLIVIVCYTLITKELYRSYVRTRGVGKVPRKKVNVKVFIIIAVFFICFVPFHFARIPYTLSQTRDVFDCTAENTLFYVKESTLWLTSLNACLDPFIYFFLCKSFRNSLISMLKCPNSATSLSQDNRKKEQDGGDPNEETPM
Test: Displacement of [3H]2MeSADP from human P2Y12 preincubated for 5 mins followed by [3H]2MeSADP addition and measured after 15 mins by scintillation counting method
Readout Type: IC50 (µM)
Number only, in µM; omit the unit.

Q: Item: CNc1cc2[nH]c(=O)n(-c3ccc(NC(=O)NS(=O)(=O)c4ccc(Cl)s4)cc3)c(=O)c2cc1F Test system: P2Y purinoceptor 12 (Homo sapiens, UniProt Q9H244) Read-out: IC50 Value: ?
Ans: 0.05

---

Molecular target: P2Y purinoceptor 12 (Homo sapiens, UniProt Q9H244)
Assay: Displacement of 2-MeS[3H]-ADP from P2Y12 (unknown origin) expressed in HEK293 cells preincubated for 5 mins followed by 2-MeS[3H]-ADP addition and measured after 30 mins by Topcount beta counter analysis
Type: cell-based
Readout Type: IC50 (µM)
Give a bare numeral; the unit µM is implied.

Q: Fill in the blank: the reported IC50 of CCCSc1nc(N[C@@H]2C[C@H]2c2ccccc2)c2nnn([C@@H]3CC[C@H](O)[C@@H](O)[C@H]3O)c2n1 is ____.
Ans: 1.35
